targetOrTestSystem: human chorionic gonadotropin (hCG) heterodimer (Homo sapiens, UniProt P01215;P0DN86 P01215:25-116,P0DN86:21-165)
Sequence (P01215 25-116, chain 1 of 2, other chains not shown): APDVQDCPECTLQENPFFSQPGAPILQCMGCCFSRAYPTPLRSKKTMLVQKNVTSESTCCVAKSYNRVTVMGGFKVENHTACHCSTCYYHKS
experimentNotes: filter; +/- 13 nM
conditionsUsed: tags: Calbiochem or Vitro Diagnostics (14,000 IU/mg); chain copies: alpha/beta heterodimer (stated); label: 32P; intramolecular G4
endpoint: Kd (nM)
Write it as a number; the unit nM goes unstated.

Reported Kd of GGAGGACGAUGCGGAGGGAACGCGGAGGGGUG (ssRNA, 2'-NH2 all pyrimidines) [delta17] : 25
